# System: KRAS-mutant PDC multicell tumor spheroid viability
# Assay Procedure: Anticancer human tumor 521955-158-R2-J5-PDC patient-derived pancreatic carcinoma cell line growth inhibition [KRAS2]; active = viability on the fitted dose curve at most 10% of control; inactive = the rest
# Test Conditions: second compound 3.16 µM; first compound 0.1 µM
Your reply should match one of these outcome classes. active, inactive

O=C(c1cc(Cc2n[nH]c(=O)c3ccccc23)ccc1F)N1CCN(C(=O)C2CC2)CC1 + CNCc1ccccc1-c1csc(C(C)Nc2nc(C)nc3cc(OC)c(OC)cc23)c1 | active

For this molecule, state the assay outcome: Cn1nccc1Nc1nccc(-c2cc3c(s2)C(C)(C)N(CCN2CCOCC2)C3=O)n1 + C=CC(=O)N1CCN(c2nc(=O)n(-c3c(C)ccnc3C(C)C)c3nc(-c4c(O)cccc4F)c(F)cc23)C(C)C1
inactive

Which outcome did this test record for the molecule COC(=O)c1ccc2c(C(=Nc3ccc(N(C)C(=O)CN4CCN(C)CC4)cc3)c3ccccc3)c(O)[nH]c2c1 + C=CC(=O)N1CCN(c2nc(=O)n(-c3c(C)ccnc3C(C)C)c3nc(-c4c(O)cccc4F)c(F)cc23)C(C)C1 ?
inactive

Could you please tell me the result logged for CC(C)NCC(C(=O)N1CCN(c2ncnc3c2C(C)CC3O)CC1)c1ccc(Cl)cc1 (centres undefined) + C=CC(=O)N1CCN(c2nc(=O)n(-c3c(C)ccnc3C(C)C)c3nc(-c4c(O)cccc4F)c(F)cc23)C(C)C1 in this assay?
inactive

###

# System: KRAS-mutant PDC multicell tumor spheroid viability
# Assay Procedure: Anticancer human tumor 521955-158-R2-J5-PDC cell line growth inhibition [KRAS2];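 also: viability read after seven days of drug exposure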
# Test Conditions: second compound 0.1 µM; first compound 0.0316 µM; stronger effect = lower value
Parameter: viability, T/C. Scope: all listed entries.
Just the number in %, nothing appended.

Before answering, review these 2 worked examples.
COc1cc(Nc2ncc3c(n2)-c2ccc(Cl)cc2C(c2c(F)cccc2OC)=NC3)ccc1C(=O)O + C=CC(=O)N1CCN(c2nc(=O)n(-c3c(C)ccnc3C(C)C)c3nc(-c4c(O)cccc4F)c(F)cc23)C(C)C1 | 47.6
COC(=O)c1ccc2c(C(=Nc3ccc(N(C)C(=O)CN4CCN(C)CC4)cc3)c3ccccc3)c(O)[nH]c2c1 + C=CC(=O)N1CCN(c2nc(OCC3CCCN3C)nc3c2CCN(c2cccc4cccc(C)c24)C3)CC1CC#N | 64.2

Sample O=C(c1cc(Cc2n[nH]c(=O)c3ccccc23)ccc1F)N1CCN(C(=O)C2CC2)CC1 + C=CC(=O)N1CCN(c2nc(OCC3CCCN3C)nc3c2CCN(c2cccc4cccc(C)c24)C3)CC1CC#N — what was its viability, T/C?
95.2

Endpoint output: viability, T/C of O=C(c1cc(Cc2n[nH]c(=O)c3ccccc23)ccc1F)N1CCN(C(=O)C2CC2)CC1 + CNCc1ccccc1-c1csc(C(C)Nc2nc(C)nc3cc(OC)c(OC)cc23)c1 . Value?
93.9

###

# System: KRAS-mutant PDC multicell tumor spheroid viability
# Assay Procedure: Anticancer human tumor 521955-158-R2-J5-PDC cell line growth inhibition [KRAS2];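 also: viability read after seven days of drug exposure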
# Test Conditions: second compound 1 µM; first compound 0.316 µM; stronger effect = lower value
Threshold 80%: viability, T/C strictly smaller gives Satisfied, otherwise Not satisfied.

See these solved cases before continuing.
CC(=O)OC12COC1CC(O)C1(C)C(=O)C(O)C3=C(C)C(OC(=O)C(O)C(NC(=O)OC(C)(C)C)c4ccccc4)CC(O)(C(OC(=O)c4ccccc4)C21)C3(C)C (stereo unspecified) + C=CC(=O)N1CCN(c2nc(OCC3CCCN3C)nc3c2CCN(c2cccc4cccc(C)c24)C3)CC1CC#N | Satisfied
Cn1nccc1Nc1nccc(-c2cc3c(s2)C(C)(C)N(CCN2CCOCC2)C3=O)n1 + COc1cc2nc(C)nc(NC(C)c3cc(N)cc(C(F)(F)F)c3)c2cc1OC1CCOC1 | Satisfied
CC1COCCN1c1cc(-c2ccnn2C)c2ccnc(-c3ccn[nH]3)c2n1 (stereo unspecified) + C=CC(=O)N1CCN(c2nc(=O)n(-c3c(C)ccnc3C(C)C)c3nc(-c4c(O)cccc4F)c(F)cc23)C(C)C1 | Satisfied
CC1COCCN1c1cc(-c2ccnn2C)c2ccnc(-c3ccn[nH]3)c2n1 (stereo unspecified) + C=CC(=O)N1CCN(c2nc(OCC3CCCN3C)nc3c2CCN(c2cccc4cccc(C)c24)C3)CC1CC#N | Satisfied
CC1OCC2(CCN(c3cnc(Sc4ccnc(N)c4Cl)c(N)n3)CC2)C1N (stereo unspecified) + C=CC(=O)N1CCN(c2nc(=O)n(-c3c(C)ccnc3C(C)C)c3nc(-c4c(O)cccc4F)c(F)cc23)C(C)C1 | Not satisfied

Lab note: confirm whether the reported viability, T/C for this compound is below 80%, equality not counting. compound: COc1cc(Nc2ncc3c(n2)-c2ccc(Cl)cc2C(c2c(F)cccc2OC)=NC3)ccc1C(=O)O + C=CC(=O)N1CCN(c2nc(=O)n(-c3c(C)ccnc3C(C)C)c3nc(-c4c(O)cccc4F)c(F)cc23)C(C)C1
Satisfied

# strict comparison: is reported viability, T/C < 80%? input = COC(=O)c1ccc2c(C(=Nc3ccc(N(C)C(=O)CN4CCN(C)CC4)cc3)c3ccccc3)c(O)[nH]c2c1 + COc1cc2nc(C)nc(NC(C)c3cc(N)cc(C(F)(F)F)c3)c2cc1OC1CCOC1
Not satisfied

Is the reported viability, T/C for CC1(C)CCC(CN2CCN(c3ccc(C(=O)NS(=O)(=O)c4ccc(NCC5CCOCC5)c([N+](=O)[O-])c4)c(Oc4cnc5[nH]ccc5c4)c3)CC2)=C(c2ccc(Cl)cc2)C1 + CNCc1ccccc1-c1csc(C(C)Nc2nc(C)nc3cc(OC)c(OC)cc23)c1 strictly below 80%?
Not satisfied

Problem: For the compound COc1cc2nccc(Oc3ccc(NC(=O)C4(C(=O)Nc5ccc(F)cc5)CC4)cc3)c2cc1OC + C=CC(=O)N1CCN(c2nc(=O)n(-c3c(C)ccnc3C(C)C)c3nc(-c4c(O)cccc4F)c(F)cc23)C(C)C1 , is viability, T/C under 80%?
Not satisfied

Consider the compound CC(=O)OC12COC1CC(O)C1(C)C(=O)C(O)C3=C(C)C(OC(=O)C(O)C(NC(=O)OC(C)(C)C)c4ccccc4)CC(O)(C(OC(=O)c4ccccc4)C21)C3(C)C (stereo unspecified) + COc1cc2nc(C)nc(NC(C)c3cc(N)cc(C(F)(F)F)c3)c2cc1OC1CCOC1 . Is its viability, T/C strictly less than 80%?
Satisfied

Hello, I'm reviewing records and need to know if viability, T/C of CC1OCC2(CCN(c3cnc(Sc4ccnc(N)c4Cl)c(N)n3)CC2)C1N (stereo unspecified) + COc1cc2nc(C)nc(NC(C)c3cc(N)cc(C(F)(F)F)c3)c2cc1OC1CCOC1 is below 80%. Could you check?
Not satisfied

###

The compounds listed here are annotated with their viability, T/C.
# System: KRAS-mutant PDC multicell tumor spheroid viability
# Assay Procedure: Anticancer human tumor 521955-158-R2-J5-PDC cell line growth inhibition [KRAS2];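 also: viability read after seven days of drug exposure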
# Test Conditions: second compound 0.1 µM; first compound 3.16 µM; stronger effect = lower value
Numeric answer only, unit % assumed.

Below are worked cases with known answers.
COC(=O)c1ccc2c(C(=Nc3ccc(N(C)C(=O)CN4CCN(C)CC4)cc3)c3ccccc3)c(O)[nH]c2c1 + CC1OCC2(CCN(c3cnc(Sc4ccnc(N)c4Cl)c(N)n3)CC2)C1N | 42.5
COC(=O)c1ccc2c(C(=Nc3ccc(N(C)C(=O)CN4CCN(C)CC4)cc3)c3ccccc3)c(O)[nH]c2c1 + CNCc1ccccc1-c1csc(C(C)Nc2nc(C)nc3cc(OC)c(OC)cc23)c1 | 26.9
Cn1nccc1Nc1nccc(-c2cc3c(s2)C(C)(C)N(CCN2CCOCC2)C3=O)n1 + C=CC(=O)N1CCN(c2nc(=O)n(-c3c(C)ccnc3C(C)C)c3nc(-c4c(O)cccc4F)c(F)cc23)C(C)C1 | 37.9

For the record CC(=O)OC12COC1CC(O)C1(C)C(=O)C(O)C3=C(C)C(OC(=O)C(O)C(NC(=O)OC(C)(C)C)c4ccccc4)CC(O)(C(OC(=O)c4ccccc4)C21)C3(C)C (centres undefined) + C=CC(=O)N1CCN(c2nc(OCC3CCCN3C)nc3c2CCN(c2cccc4cccc(C)c24)C3)CC1CC#N , what value of viability, T/C is listed for KRAS-mutant PDC multicell tumor spheroid viability?
18.3

###

# Test system: KRAS-mutant PDC multicell tumor spheroid viability
# Assay Procedure: Anticancer human tumor 521955-158-R2-J5-PDC cell line growth inhibition [KRAS2];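 also: viability read after seven days of drug exposure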
# Test Conditions: curve of first compound; second compound 0.1 µM
pIC50: −log10 of the molar value.
Measured Metric: pIC50

Consider the following illustrative entries.
Cn1nccc1Nc1nccc(-c2cc3c(s2)C(C)(C)N(CCN2CCOCC2)C3=O)n1 + CNCc1ccccc1-c1csc(C(C)Nc2nc(C)nc3cc(OC)c(OC)cc23)c1 | 5.98
Cn1ncnc1[C@H]1c2n[nH]c(=O)c3cc(F)cc(c23)N[C@@H]1c1ccc(F)cc1 + CNCc1ccccc1-c1csc(C(C)Nc2nc(C)nc3cc(OC)c(OC)cc23)c1 | < 7.00

Please find the next compound below.
Form field - read-out: pIC50; system: KRAS-mutant PDC multicell tumor spheroid viability; submitted item: Cn1ncnc1[C@H]1c2n[nH]c(=O)c3cc(F)cc(c23)N[C@@H]1c1ccc(F)cc1 + C=CC(=O)N1CCN(c2nc(=O)n(-c3c(C)ccnc3C(C)C)c3nc(-c4c(O)cccc4F)c(F)cc23)C(C)C1
< 7.00
